We begin with a simple list: items and their reported GI50.
# Tested on: SNB-75
# experimentDescription: NCI tumour cell line growth inhibition, 48 h
Calls of active or inactive are those of the source. Cut-off read from the data, not from the text of the source: active = GI50 up to about 1.1 µM and inactive = higher.
propertyMeasured: GI50

>>> observed("O=[N+]([O-])/C(C(Cl)=C(Cl)Cl)=C1\\Nc2ccccc2O1")
"15.7 µM (inactive)"
>>> observed("O=C1C2C3C=CC(C2C(=O)N1CN1CCOCC1)C1C2C(=O)N(CN4CCOCC4)C(=O)C2C31 (stereo unspecified)")
"> 47.3 µM (inactive)"
>>> observed("NNc1nncc2[nH]cnc12")
"> 100 µM (inactive)"
>>> observed("Cn1/c(=N\\N=C(\\CNCCO)[C@@H](O)[C@@H]2OC(c3ccccc3)OC[C@H]2O)sc2ccccc21 (stereo partly specified)")
"16 µM (inactive)"
>>> observed("Cc1cc(N(CCC#N)CCC#N)ccc1/N=N/c1ccccc1[N+](=O)[O-]")
"34 µM (inactive)"
>>> observed("COc1cc(C)c(C)c(OC(=O)c2c(C)c(C)c(OC)c(C)c2OC)c1C")
"4.04 µM (inactive)"

* * *

# Tested on: CAKI-1
# experimentDescription: NCI tumour cell line growth inhibition, 48 h
Active and inactive are the calls of the source. Cut-off read from the data, not from the text of the source: active = GI50 up to about 1.1 µM and inactive = higher.
Classes used: true (active), false (inactive)

>>> categorylabel("COc1cc(C2=NN(C)C(c3ccc([N+](=O)[O-])o3)C2)cc(OC)c1OC (centres undefined)")
"false"
>>> categorylabel("COc1ccc(OC)c(-c2cc(=O)c3c(OC)c(OC)c(OC)c(OC)c3o2)c1")
"false"
>>> categorylabel("CN(C)CN(C)c1nc(N(C)C)nc(N(C)CN(C)C)n1")
"false"
>>> categorylabel("C[C@]12CCC[C@H](Cl)C1(O)C[C@H](C(=O)O)CC2 (some centres undefined)")
"false"
>>> categorylabel("CCSc1nc2sc(C)c(C)c2c(=O)n1-c1ccc(C(=O)O)cc1")
"false"
>>> categorylabel("Cc1ccc(Nc2nc(C)c(C(/C=C/c3ccc(/C=C/C(=N/NC(=O)C[n+]4ccccc4)c4sc(Nc5ccc(C)cc5[N+](=O)[O-])nc4C)cc3)=N\\NC(=O)C[n+]3ccccc3)s2)c([N+](=O)[O-])c1")
"false"
>>> categorylabel("C=CCOCn1cnc2c(=O)[nH]c(N)nc21")
"false"
>>> categorylabel("COc1cc(CC(C(=O)O)C(=O)O)c(OC)cc1CC(C(=O)O)C(=O)O")
"false"
>>> categorylabel("COC(=O)C1=C(c2ccc3c(c2)OCO3)OC(c2ccc3c(c2)OCO3)C1 (centres undefined)")
"false"
>>> categorylabel("Cc1ccc(NC(=O)C2C(=O)N(c3ccc(C)c(C)c3)C(=O)/C2=N\\NC(N)=S)cc1C (centres undefined)")
"false"
>>> categorylabel("CC1=CC(=O)CC(C)(C)C1/C=C/C(C)=C/C=C/C(C)=C/C=C/C=C(C)/C=C/C=C(C)/C=C/C1C(C)=CC(=O)CC1(C)C (centres undefined)")
"false"
>>> categorylabel("CC12CCC(=O)C=C1CCC1C2CCC2(C)C(C(=O)Cn3cnc4c(=S)nc[nH]c43)CCC12 (centres undefined)")
"false"
>>> categorylabel("CN(C)CCNC(=O)c1ccc(NCCCN(C)CCCNc2ccc3c(=O)n(CCN(C)C)c(=O)n4c5ccccc5c(=O)c2c34)c2c(O)c3ccccc3nc12")
"true"
>>> categorylabel("CCOC(=O)C1C(=O)c2ccccc2CN1Cc1ccccc1 (centres undefined)")
"false"
>>> categorylabel("O=C(CSc1nnc(SCC(=O)NN=C2CCCCC2)s1)NN=C1CCCCC1")
"false"
>>> categorylabel("C/C=C/C/C=C/CCC(=O)C1OC1C(N)=O (centres undefined)")
"false"
>>> categorylabel("O=[N+]([O-])c1ccc(Cl)c(C2CC(c3cccc4ccccc34)=Nc3ccccc3[S+]2[O-])c1 (centres undefined)")
"false"
>>> categorylabel("CC(=O)C1C(=O)C(=O)N(c2ccccc2N2C(=O)C(=O)C(C(C)=O)C2=O)C1=O (centres undefined)")
"false"
>>> categorylabel("CC(=O)N1N=C(c2ccc3ccccc3c2O)CC1c1ccc(N(C)C)cc1 (centres undefined)")
"false"
>>> categorylabel("COc1ccc(C2(O)c3ccccc3C(=O)N(C)C2(O)c2ccc(OC)cc2)cc1 (centres undefined)")
"false"
>>> categorylabel("C=C1C(O)C2(O)OCC34C(CC5C(C)=CC(=O)C(O)C5(C)C23)OC(=O)C(OC(=O)C/C=C/CCCCCCCC)C14 (centres undefined)")
"true"
>>> categorylabel("CCCCCCCCCCCCCC(=O)OC1CC(=O)OC1CO (centres undefined)")
"false"
>>> categorylabel("CN1CCN(C)C12C=c1ccccc1=CC21CC1")
"false"
>>> categorylabel("CN(Cc1ccccc1)C(=S)S [SODIUM BENZYL(METHYL)CARBAMODITHIOATE]")
"false"
>>> categorylabel("N#CC1(c2nc3ccccc3o2)C(=O)C(=O)N(c2ccc(Cl)c(Cl)c2)C(=O)C1=O")
"false"
>>> categorylabel("Cc1c2cccc-2c(OCCOC(=O)n2ccnc2)cc2c1[nH]c1ccccc12")
"false"
>>> categorylabel("O=C(NC(Cc1ccc(I)cc1)C(=O)O)c1cccc(Br)c1 (centres undefined)")
"false"
>>> categorylabel("CN(C)/C=N/NC(=O)/C(C#N)=C/N(C)C")
"false"
>>> categorylabel("CC(Oc1ccc(Cl)cc1Cl)C(=O)NN1C(=O)CC(=O)NC1=S (centres undefined)")
"false"
>>> categorylabel("C=C(C)[C@@]1(O)CCC[C@H]1NC(=O)OC(C)(C)C")
"false"
>>> categorylabel("Oc1cc(-c2ccc(Cl)cc2)nc2ncccc12")
"false"
>>> categorylabel("N#CC12CCC(O)C(CC1)C2=O (centres undefined)")
"false"
>>> categorylabel("CCSc1s/c(=N/c2ccc(/N=c3\\sc(C)c(SC)s3)cc2)sc1-c1ccc(C)cc1")
"false"
>>> categorylabel("N#CC1=C(c2ccccc2)C(O)(c2ccccc2)NC1=O (centres undefined)")
"false"
>>> categorylabel("Cn1c2c(c3ccccc31)CCN1C(=O)CCC21 (centres undefined)")
"false"
>>> categorylabel("CC(=O)O[C@H]1C(=O)[C@@]2(C)[C@H]([C@H](OC(=O)c3ccccc3)[C@]3(O)C[C@H](OC(=O)[C@H](O)[C@@H](NC(=O)c4ccccc4)c4cccc(N(C)C)c4)C(C)=C1C3(C)C)[C@]1(OC(C)=O)CO[C@@H]1C[C@@H]2O")
"false"
>>> categorylabel("CC(C)c1cc(CN(C)C)c(O)c(C(C)(C)C)c1")
"false"
>>> categorylabel("O=C1CSC(/C=C/c2ccccc2)N1c1ccc(-n2c(-c3ccccc3)nc3ccccc3c2=O)cc1 (centres undefined)")
"false"
>>> categorylabel("COCN(C)c1nc(N(C)C)nc(N(C)C)n1")
"false"

* * *

# Test system: OVCAR-5
# experimentDescription: NCI tumour cell line growth inhibition, 48 h
The source made the active and inactive calls. Cut-off read from the data, not from the text of the source: active = GI50 up to about 1.1 µM and inactive = higher.
We begin with a simple list: items and their reported GI50.
propertyMeasured: GI50

>>> observed("O=C(NC(Cc1ccc(I)cc1)C(=O)O)c1cccc(Br)c1 (stereo not given)")
"> 100 µM (inactive)"
>>> observed("O=C1C2C3C=CC(C2C(=O)N1CN1CCOCC1)C1C2C(=O)N(CN4CCOCC4)C(=O)C2C31 (stereo not given)")
"> 59.2 µM (inactive)"
>>> observed("CN(C)/C=N/NC(=O)/C(C#N)=C/N(C)C")
"> 100 µM (inactive)"
>>> observed("C=C1C(=O)O[C@H]2[C@@H](O)[C@H](C)CCC/C(C)=C/CC[C@@]3(C)O[C@@H]3C[C@@H]12")
"15.7 µM (inactive)"
>>> observed("COc1ccc(OC)c(NC(=O)CCC/C(CC(=O)c2ccc(O)c(OC)c2)=N\\Nc2nnc(C)n2N)c1")
"> 100 µM (inactive)"
>>> observed("Cc1cnc2ccc(C)c([N+](=O)[O-])c2c1NCCCN(C)C")
"> 100 µM (inactive)"
>>> observed("CSCCCNC(=O)c1csc(-c2csc(CCN)n2)n1")
"49.4 µM (inactive)"
>>> observed("CCSc1s/c(=N/c2ccc(/N=c3\\sc(C)c(SC)s3)cc2)sc1-c1ccc(C)cc1")
"> 100 µM (inactive)"
>>> observed("CC(C)OP(=O)(OC(C)C)/C(=N/Nc1ccc([N+](=O)[O-])cc1)NCCN/C(=N\\Nc1ccc([N+](=O)[O-])cc1)P(=O)(OC(C)C)OC(C)C")
"31.6 µM (inactive)"
>>> observed("CS(=O)(=O)OCCCSCCSCCCOS(C)(=O)=O")
"> 100 µM (inactive)"
>>> observed("COc1ccc(C[C@H]2COC(=O)[C@@H]2Cc2ccc(O)cc2)cc1OC")
"> 100 µM (inactive)"
>>> observed("Cc1cc(O)c2c(c1)C(C1c3cccc(O)c3C(=O)c3c(O)cc(C)cc31)c1cccc(O)c1C2=O (stereo not given)")
"0.766 µM (active)"
>>> observed("COC(=O)C(Cc1ccccc1)OC(=O)C(N)CC(=O)O (stereo not given)")
"> 100 µM (inactive)"
>>> observed("OCC1CC2C=CCC(C2)C1 (stereo not given)")
"> 100 µM (inactive)"
>>> observed("CC(C)(C)c1ccc2c(c1)OP1(Oc3cccc4cccnc34)(O2)Oc2ccc(C(C)(C)C)cc2O1")
"4.17 µM (inactive)"
>>> observed("Cc1c(Br)c(Br)c(C)[s+]1[O-]")
"18 µM (inactive)"
>>> observed("NC(=O)C(=O)CC(=O)c1ccccc1NC1=CC(=O)C(=O)c2ccccc21")
"> 100 µM (inactive)"
>>> observed("Cc1cc2nc3[nH]c4c(Cl)cc(Cl)cc4c3nc2cc1C")
"> 100 µM (inactive)"
>>> observed("CC(=O)O[C@H]1C(=O)[C@@]2(C)[C@H]([C@H](OC(=O)c3ccccc3)[C@]3(O)C[C@H](OC(=O)[C@H](O)[C@@H](NC(=O)c4ccccc4)c4cccc(N(C)C)c4)C(C)=C1C3(C)C)[C@]1(OC(C)=O)CO[C@@H]1C[C@@H]2O")
"0.157 µM (active)"
>>> observed("Cc1ccc2c(c1C)CC1(Cc3ccc(C)c(C)c3C1=O)C2=O (stereo not given)")
"> 100 µM (inactive)"
